tested on: HEK293T cells; assay: Cytotoxicity assay, dihydroethidium staining, flow cytometry; assay type: cell-based, human; conditions: Homo sapiens, HEK-293T; HEK293T, 48 h; read-out: IC50 (µM) HEK293T 48 h
// IC50 lookup, one value per entry
Respond numerically; units are µM and should not be typed.

Past entries and their recorded results:
MOLECULE: C=C(C)[C@@H]1CC[C@]2(C(=O)NCCCN3CCN(CCCN)CC3)CC[C@]3(C)C(CCC4[C@@]5(C)CC[C@H](OC(C)=O)C(C)(C)C5CC[C@]43C)C12 (stereo partly shown)
IC50 (µM): 4
--
MOLECULE: CC(=O)OC1CCC2(C)C(CCC3(C)C2CC=C2C4C(C)C(C)CCC4(C(=O)NCCCN4CCN(CCCN)CC4)CCC23C)C1(C)C (stereo not shown)
IC50 (µM): 4

Let's switch to this molecule now.
Field IC50 (entry C=C(C)[C@@H]1CC[C@]2(C(=O)NCCCN3CCN(CCCNC(=O)OC(C)(C)C)CC3)CC[C@]3(C)C(CCC4[C@@]5(C)CC[C@H](OC(C)=O)C(C)(C)C5CC[C@]43C)C12 (stereo partly shown) ) reads 4

====

assay: Cytotoxicity assay, dihydroethidium staining, flow cytometry; type: cell-based, human; details: human, HEK293T cells; HEK293T, time not stated; read-out: IC50 cytotoxicity HEK293T
PROPERTY_MEASURED: IC50

Field IC50 (entry CC(=O)OC1CCC2(C)C(CCC3(C)C2CC=C2C4C(C)C(C)CCC4(C(=O)NCCCN4CCN(CCCN)CC4)CCC23C)C1(C)C (stereo not shown) ) reads 4 µM

====

// IC50 lookup, one value per entry
system: HEK293T cells; experiment: Cytotoxicity assay, dihydroethidium staining, flow cytometry; format: cell-based, human; conditions: Homo sapiens, HEK-293T; HEK293T, 24 h; read-out: IC50 (µM) HEK293T 24 h
Respond numerically; units are µM and should not be typed.

Past entries and their recorded results:
COMPOUND: C=C(C)[C@@H]1CC[C@]2(C(=O)NCCCN3CCN(CCCN)CC3)CC[C@]3(C)C(CCC4[C@@]5(C)CC[C@H](OC(C)=O)C(C)(C)C5CC[C@]43C)C12 (stereo partly shown)
IC50 / µM: 4
--
COMPOUND: C=C(C)[C@@H]1CC[C@]2(C(=O)NCCCN3CCN(CCCNC(=O)OC(C)(C)C)CC3)CC[C@]3(C)C(CCC4[C@@]5(C)CC[C@H](OC(C)=O)C(C)(C)C5CC[C@]43C)C12 (stereo partly shown)
IC50 / µM: 4

Let's switch to this compound now.
Field IC50 (entry CC(=O)OC1CCC2(C)C(CCC3(C)C2CC=C2C4C(C)C(C)CCC4(C(=O)NCCCN4CCN(CCCN)CC4)CCC23C)C1(C)C (stereo not shown) ) reads 4
